Just for reference, the domain aggregation screens of Martell et al. (2025) is where these values come from.

procedure-summary: soluble fraction after stress (log2 fold change); higher = more stays soluble; pooled small domains, quantitative proteomics
assay-context: stress: pH 4
Classification field: condition met = soluble fraction (log2) at or over -0.1; condition not met = soluble fraction (log2) under -0.1.

HMVNYKEILRLSAEGNSQRQIAAGSGNSRNTVIEVLEAARARGITWPLDEPVTNEQLEAILFPNRY ... condition met
HMSEQLVGTVGHITVGTARTASPAEAKFLDAFEQPHYLLVEPIEPKDIFQQGDKVVLVKKQHHSWLATRYI ... condition met
HMEIEEIDYGTFLQMVEDGVVEKIELTDTQIFLTSTVDNDDKVYTTGVMPDQDLTNRLIEAGVVNFGKVV ... condition not met
HMPIQLLSEKYMDEHWDELDKDEVSLYQNMSIRFLLKHEDDINWKLYSTNPFISIDTIDFFKDKISWVNI ... condition not met
HMKKTAAKVLGESEGKPVTVQSGRYGPYVQLGSIRATLPKDLEQDDVTLDRALELISAKAERAGK ... condition met

Input line: Is it the case that `HMYFGNSLFQARKRSGLSQEGVAEKLGVSRQTVSKWETGETVPDIYQSKKMARLYGVSLDEL` has soluble fraction (log2) reaching or exceeding -0.1?
Output line: condition met

Input line: I'd appreciate it if you could say whether `HMENMTLGQRIQALRKQHGLSQEGLGERLGVSRQAISRWEMDGAVPEVDKLIAMARLFGVSLNQLLGVE` has soluble fraction (log2) at least equal to -0.1.
Output line: condition met

Input line: I'd appreciate it if you could say whether `HMNPETLTNGSVVKMSKANLSDELIIDMINNSPARFDLSSGALRSLEGEGVSKAVIESMKRATSG` has soluble fraction (log2) at least equal to -0.1.
Output line: condition met

Input line: Would you say `HMISRKIKELRLSHDLTQKDLADYLNLTPKMVSFYELGQRVPPSDIILKLAEKFHVSTDYLLGNEDRP` shows soluble fraction (log2) at minimum -0.1?
Output line: condition not met

Input line: Does `HMKSKNRLTKSYLDSIPGVGRKRKSILLRYFGSIDQIKRASSEDIANVPGIGKITSDLVYNYFNQ` have a reported soluble fraction (log2) of at least -0.1?
Output line: condition not met

Input line: Is the recorded value of soluble fraction (log2) equal to or greater than -0.1 for this sequence? `HMGASSLVGRSARVLQAVTDSDGRIKLAGETWSARLAAGATSTVGPGEEVRVIAIHGATAIVAPV`
Output line: condition met

Input line: Can `HMDRIISTPMPGRVVKIPVTEGEPVAKGATVITISAMKMESEYKSPIDGIVKKIHVSEGDNINANQPLIEI` be said to have soluble fraction (log2) at or above -0.1?
Output line: condition not met

Input line: Decide: soluble fraction (log2) of `HMDLPDTLSMPNALKVLEDNGFPTSKAKLYKMTSQEQIPFMKYGNKLVFSRKALIEWAHKQLV` >= -0.1?
Output line: condition met

Input line: Hi team, for `HMHSVIALTIPADYAGLRLDQALAKLLPNWSRSRLQTWIAENRVILDGQITTIKQKVWGNELIQISPQD` , is the recorded soluble fraction (log2) at or above -0.1?
Output line: condition not met

Input line: Say whether `HMSAISSARKEKIIEYLTDHGSARSSEIAEYVDLRPSRVRDYLGELVREDIVVAEGANRNRTYRLK` shows soluble fraction (log2) of -0.1 or more.
Output line: condition met

Input line: Exam item: decide whether the reported soluble fraction (log2) for `HMEIFSIEPDSYLGSGEEIASYYREGVTVIVNMAKLSDAESLRMVDFMSGLKLALLGNIKRITKHVYLLTP` is at least -0.1.
Output line: condition not met

Input line: I'd appreciate it if you could say whether `HMTVKNFNDLPGFKNENLAELKAMGITTISELAEALNDGGKIKEIIKNLSGVGPKTAEKWKDAIG` has soluble fraction (log2) at least equal to -0.1.
Output line: condition not met

Input line: Is reported soluble fraction (log2) greater than or equal to -0.1 here: `HMLLREKLESVLPFISVSALAKTYFKRSPQWFYQRLNGSIVNGKPIRFNDAELKTLAGALTDIGKKISQAA`
Output line: condition met

Input line: Determine whether measured soluble fraction (log2) meets or exceeds -0.1 for `HMDYAQAQRQAESAIALRPDVERLRLLLIYALQKQGKLREAEQAAADAIKSGLDTPALRQARANLRP`
Output line: condition not met

Input line: Reported soluble fraction (log2) reaches at least -0.1 for `HMGSGKGAAHTILGISADASDDEIKAAWRKLVQENHPDKLVSQGLPDEFVQAATDRLRLINTAYQSMLNRP` ?
Output line: condition not met

Input line: Is it the case that `HMVDDRPVTGTTLIREWQGRAYEVIVQAGHFEFQGQRYQSLSAIAKVITGTVWNGWAFFGLR` has soluble fraction (log2) reaching or exceeding -0.1?
Output line: condition not met

Input line: I'd appreciate it if you could say whether `HMDAYLPETVQKLLDVMDFDVPYSAAQLMEKLGLKSRASFRKLYLLPALEKNLIAMGVPDKPTSRNQTYIR` has soluble fraction (log2) at least equal to -0.1.
Output line: condition met

Input line: Quick check: does `HMLAAGTPLTVVTESSNLNIRQEPSTEAAVVGKAAKGEIVTLVEQTSGEWWKVSTKDGEEGYAYSRYL` have soluble fraction (log2) greater than or equal to -0.1?
Output line: condition not met

Input line: hey, is soluble fraction (log2) for this one >= -0.1? `HMTNSAGIERFLASGAIDGVGPAMARRIVEHFGTEALRIIESVPHRLREISGIGPKTAEKIASSYMRQ`
Output line: condition not met

Input line: soluble fraction (log2) >= -0.1 for `HMNVVINNELVSLMVEAMKDGVSSKSIQEEFEGYKISGKTITKKVLTAHVNKALEVFADMQE` ?
Output line: condition not met

Input line: Hi team, for `HMDDNMNEQWKMILNSIAKKGSVTRQETEKILGIGQTRAHVLLKAMIHAGMIKAVGDGKKRRYVR` , is the recorded soluble fraction (log2) at or above -0.1?
Output line: condition met
